- System: MS2 coat protein
- assay_summary: apparent KD of MS2 coat protein; designed switch direction (-1 OFF switch, 1 ON switch): -1; higher = weaker reporter binding
- test_parameters: input ligand: microRNA oligo, concentration not stated
measured_parameter: apparent KD of MS2 coat protein (nM)
Field format: number, assumed nM, no unit text.

Example sequences with recorded apparent KD of MS2 coat protein:
{"sequence_data": "CUGCUGGAGUUUUGCUUUGGUCGUACAUGAGGAUCACCCAUGUAGGAUAUGGUAAAAUUCGCCUGCUAGAAGGAUAGAGUGGUC [salish99_ExNG3_r04_621] (Eterna round: R96, puzzle: Exclusion NG 3)", "apparent KD of MS2 coat protein / nM": 23}
{"sequence_data": "AAGAAGAAGUAAGGAUAUGAAGAUCUGGUGGUGACAUGAGGAUCACCCAUGUGAAAACAAUAAGAUCAGAAGGUAUAAGAAGAA [AK ExNG2-3.1] (Eterna round: R96, puzzle: Exclusion NG 2)", "apparent KD of MS2 coat protein / nM": 70.4}
{"sequence_data": "ACAUGUCAUCGAGGAUAUUGGACACAUGAGGAUCACCCAUGUACCCGGAGGCUUUACUAUGAGUUCGAGAAGGCGAUGUACAUG [Ex NG2 #73] (Eterna round: R96, puzzle: Exclusion NG 2)", "apparent KD of MS2 coat protein / nM": 42.4}
{"sequence_data": "GCGUAGUAUGUAGGAUAUCGGUCAGUUUCUGAUCGAGAAGGACAUGAGGAUCACCCAUGUAAAUUGCCCGCUUUGUGGGUACGC [JL ENG1 3.60] (Eterna round: R96, puzzle: Exclusion NG 1)", "apparent KD of MS2 coat protein / nM": 19.1}
{"sequence_data": "ACAUGAGGAUCACCCAUGUGAAAACAAUGGCUGACUUUGAGAUAGGAUAUUGGUGCAUAUCAAACCAAGAAGGGUCAUUACUGG [Deportation 92 - Jieux - Exclusion NG 3] (Eterna round: R96, puzzle: Exclusion NG 3)", "apparent KD of MS2 coat protein / nM": 32.8}
{"sequence_data": "GAGCCAUCGUGAGAUGGCUAACAUACAUGAGGAUCACCCAUGUAGGAUAUCGAUUGCUUUGCAGUCGAGAAGGACAUGUUUAAU [JL ENG3 3.96] (Eterna round: R96, puzzle: Exclusion NG 3)", "apparent KD of MS2 coat protein / nM": 19.1}

Report apparent KD of MS2 coat protein for GUCAUGUAAGGAUAUCUUACAUGUGACUUCGGUCACUGUCAAGAGAAGGUACAUGAGGAUCACCCAUGUUCGAC [Ex4-3: 52] (Eterna round: R96, puzzle: Exclusion 4) please.
19.2

Try CCAGCGGACAAAGGAUAUUGCGGUGACCGGCUCGGCGUACCGAGCCUACAUGAGGAUCACCCAUGUAAGAAGGUUGUCGUAGGA [Mat - Exclusion NG 2 - Mod of JL - D73] (Eterna round: R96, puzzle: Exclusion NG 2) next.
13.2

Another sequence to look at: AACCUGAGGCUUUGCUUUAGGUAUACAUGAGGAUCACCCAUGUAGGAUAUGGUAGGCUUUGCUUACCAGAAGGACAUGUUAAUU [JL ENG3 1.10] (Eterna round: R96, puzzle: Exclusion NG 3)
41.7

What do you get for GGUCAGACGGUAGGAUAUCUAUAUCGAGUGACCCUUUCAUAACAUGAGGAUCACCCAUGUCGGUGGGAGAAGGGCCGUACGGCG [salish99_ExNG02_R04_007] (Eterna round: R96, puzzle: Exclusion NG 2) ?
31.6
